assay-notes: NCI Yeast Anticancer Drug Screen. Data for the mlh1 rad18 strain (AID 175)
recorded-conditions: S. cerevisiae mlh1 rad18 strain growth inhibition; at 5.0 µM (retest, dose inferred, filed as 0.5)
The panel holds about 79,000 compounds, 15% with a hit somewhere; the sample as a whole holds those more often. Calls of active or inactive are those of the source. No stated cut-off is given here; in the data, active means growth inhibition above about 70%; inactive means the rest.
Allowed answers: active, inactive

CC(=O)c1sc2c(c1O)c(=O)n(-c1ccccc1)c(=S)n2-c1ccccc1 ... inactive
OC(Cn1cncn1)(Cn1cncn1)c1ccc(Cl)cc1Cl ... active
CCCC(C1=C(O)CC(C)CC1=O)C1=C(O)CC(C)CC1=O (stereo unspecified) ... inactive
O=C(C(/C=N\C(=S)Nc1ccccc1Cl)=C(/O)c1ccccc1)c1ccccc1 ... active
C/C(=N\O)c1ccc2cc(Br)c3ccccc3c2c1 ... inactive

**Query** Outcome? CN(C)/N=C1\CC(c2ccccc2)C(C#N)(C#N)C1(C#N)C#N (stereo unspecified)
**Result** inactive

**Query** Please share the test call associated with `CCc1ccccc1SC(C)=O` .
**Result** inactive

**Query** What classification did `CCOc1ccc2c(c1)[n+]([O-])c(S(=O)(=O)c1ccc(C)cc1)c(N)[n+]2[O-]` end up with in this test?
**Result** inactive

**Query** Outcome? `O=C1c2ccccc2C(=O)c2cc(S(=O)(=O)Cl)ccc21`
**Result** inactive

**Query** How did this test come out for `COc1ccc(CN2COc3c(cc(C)c4cccnc34)C2)cc1` ?
**Result** inactive

**Query** Check the results log: what was the call for O=C1c2ccccc2CCC1C(O)(C(F)(F)F)C(F)(F)F (stereo unspecified) ?
**Result** inactive
